Each recorded value in this set is attributed to patent US20160022683A1.

Assay: clinical
Conditions: human, in vivo, oral, 560 mg, AUClast, Ibrutinib 560 mg alone, fed; n=8; spread in brackets

{"columns": ["Entry Smiles", "AUC(0-t) / ng·h/mL"],
 "data": [
  ["C=CC(=O)N1CCC[C@@H](n2nc(-c3ccc(Oc4ccccc4)cc3)c3c(N)ncnc32)C1", 606]
]}

---

Test: clinical
Settings: human, in vivo, oral, AUClast, Ibrutinib 140 mg + grapefruit juice, fed; n=8; spread in brackets

{"columns": ["Compound", "AUC(0-t), µg·h/mL"],
 "data": [
  ["C=CC(=O)N1CCC[C@@H](n2nc(-c3ccc(Oc4ccccc4)cc3)c3c(N)ncnc32)C1 [Ibrutinib]", 0.325]
]}

---

Assay: clinical
Conditions: human, in vivo, oral, 560 mg, AUCinf, Ibrutinib 560 mg alone, fasted; n=8; spread in brackets

{"columns": ["Compound", "AUC(0-inf) [ng·h/mL]"],
 "data": [
  ["C=CC(=O)N1CCC[C@@H](n2nc(-c3ccc(Oc4ccccc4)cc3)c3c(N)ncnc32)C1 [Ibrutinib]", 368]
]}

---

Experiment: clinical
Settings: human, in vivo, oral, 560 mg, AUC0-24 h, Ibrutinib 560 mg alone, fed; n=7; spread in brackets
Readout Kind: AUC(0-t) (ng·h/mL)

{"columns": ["Entry Smiles", "Readout Kind", "Unit Annotation", "Result"],
 "data": [
  ["C=CC(=O)N1CCC[C@@H](n2nc(-c3ccc(Oc4ccccc4)cc3)c3c(N)ncnc32)C1", "AUC(0-t)", "ng·h/mL", 544]
]}

---

Test: clinical
Details: human, in vivo, oral, 560 mg, Cmax, Ibrutinib 560 mg alone, fasted; n=8; spread in brackets
Readout Kind: Cmax (ng/mL)

{"columns": ["Entry Smiles", "Unit Annotation", "Result"],
 "data": [
  ["C=CC(=O)N1CCC[C@@H](n2nc(-c3ccc(Oc4ccccc4)cc3)c3c(N)ncnc32)C1", "ng/mL", 245]
]}

---

Assay: clinical
Details: human, blood, oral, 560 mg

{"columns": ["Compound", "Cmax / ng/mL"],
 "data": [
  ["C=CC(=O)N1CCC[C@@H](n2nc(-c3ccc(Oc4ccccc4)cc3)c3c(N)ncnc32)C1 [Ibrutinib]", 42]
]}

---

Assay: clinical
Conditions: human, in vivo, oral, AUCinf, Ibrutinib 140 mg + grapefruit juice, fed; n=8; spread in brackets
Readout Kind: AUC(0-inf) (ng·h/mL)

{"columns": ["Molecule", "Result"],
 "data": [
  ["C=CC(=O)N1CCC[C@@H](n2nc(-c3ccc(Oc4ccccc4)cc3)c3c(N)ncnc32)C1 [Ibrutinib]", 334]
]}
